Each recorded value in this set is attributed to paper PMC6557900.

- studyTarget: T1, SOCS2(C133Y)-ElonginB-ElonginC complex (human | , UniProt O14508 32-198; Q15370 1-104; Q15369 17-112, C133Y)
- T1 construct: also called SBC C133Y; source: E. coli BL21(DE3), co-expressed, purified (as wild-type SBC); not shown: His6, N-terminal, cleaved; copies: + +
- T1 sequence (O14508 32-198 C133Y, chain 1 of 3): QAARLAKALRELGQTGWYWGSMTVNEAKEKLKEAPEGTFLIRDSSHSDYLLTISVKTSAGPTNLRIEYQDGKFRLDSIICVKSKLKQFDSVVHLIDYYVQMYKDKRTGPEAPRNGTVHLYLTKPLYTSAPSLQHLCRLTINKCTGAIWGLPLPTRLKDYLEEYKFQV
- T1 sequence (Q15370 1-104, chain 2 of 3): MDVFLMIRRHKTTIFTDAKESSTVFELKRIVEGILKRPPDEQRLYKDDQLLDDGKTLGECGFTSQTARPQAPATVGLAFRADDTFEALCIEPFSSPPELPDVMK
- T1 sequence (Q15369 17-112, chain 3 of 3): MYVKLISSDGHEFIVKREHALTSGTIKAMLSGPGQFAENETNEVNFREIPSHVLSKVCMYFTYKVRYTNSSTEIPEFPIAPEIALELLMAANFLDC
- testDescription: SPR; biotinylated SBC (wild-type or mutant) immobilised, peptide injected at 0.08-60 μM; 20 mM HEPES pH 7.5, 150 mM NaCl, 1 mM TCEP, 0.005% Tween20, 10 °C; steady-state affinity, 1:1 model
- assayConditions: both partners purified
Where no end group is shown, it is not given here. [ ]: non-standard residue; d: D form. pY = N[C@@H](Cc1ccc(OP(=O)(O)O)cc1)C(=O)O
measuredMetric: Kd (µM)
Please give a number only; it is taken to be in µM.

Name the recorded Kd for NIDF[pY]AQVSDI-NH2 (growth hormone receptor (GHR), 11-residue peptide around pY487; source: synthetic peptide (solid-phase, Fmoc, Rink amide resin), HPLC purified) [GHR_pY487 phosphopeptide (growth hormone receptor)] .
7.7
